From: PubChem BioAssay (NCI)

# System: SNB-19 CNS
# Method description: NCI tumour cell line growth inhibition, 48 h
Could you please report measured TGI for the items listed next?

stdin: Please give the measured TGI for this molecule: COC(=O)C[C@@H]1CC=CC(=O)/C1=C(O)/C=C/c1ccccc1
stdout: 4.84 µM

stdin: Now the molecule COc1cc2cc[n+](C)c(Cc3ccc(Oc4cc(Cc5c6cc(OC)c(OC)cc6cc[n+]5C)ccc4OC)cc3)c2cc1OC
stdout: > 100 µM

stdin: Now the molecule CCC1C[N+]2=C(c3cc(OC)c(OC)cc3CC2)c2c1cc1n2CCc2cc(OC)c(OC)cc2-1 (stereo not given)
stdout: 15.7 µM

stdin: Now the molecule C=CCc1cccc(/C(O)=C/C(=O)/C=C/c2ccccc2Cl)c1O
stdout: > 84 µM

stdin: Now the molecule COc1ccc(-c2cncn2-c2ccc(-c3nc4cc(OC)c(OC)c(OC)c4s3)cc2)cc1N
stdout: > 100 µM
